Cited source: paper PMC7016291

IC50 values recorded for WT HIV-1 RT (Human immunodeficiency virus type 1 group M subtype B, UniProt P03366)
I only need the number, in nM, no unit after it.

Some solved cases for reference:
Cc1cc(-c2ccc(C#N)cc2)cc(C)c1Oc1nc(Nc2ccc(C#N)cc2)nc(N2CCNCC2)n1 [Compound 5f] : 482
Cc1cc(-c2ccc(C#N)cc2)cc(C)c1Nc1nc(Nc2ccc(C#N)cc2)nc(N2CCNCC2)n1 [Compound 6h] : 341
Cc1cc(-c2ccc(C#N)cc2)cc(C)c1Nc1nc(NCC2CCOC2)nc(Nc2ccc(C#N)cc2)n1 (stereo not shown) [Compound 6e] : 106

Query: Entry under review: Cc1cc(-c2ccc(C#N)cc2)cc(C)c1Nc1nc(Nc2ccc(C#N)cc2)nc(N2CCCC2CO)n1 (stereo not shown) [Compound 6j] . Reported IC50?
Result: 157

====

# PROCEDURE_DETAILS: In vivo pharmacokinetics in SD rats
# CONDITION: rat, plasma, iv, 1 mg/kg
MEASURED_QUANTITY: AUC(0-inf) (ng·h/mL)
Note: unit ng·h/mL is implicit; provide only the numeric part.

Query: What measured AUC(0-inf) goes with "Cc1cc(-c2ccc(C#N)cc2)cc(C)c1Oc1nc(NCCN2CCOCC2)nc(Nc2ccc(C#N)cc2)n1" ?
Result: 6660

====

// pEC50 lookup, one value per entry
# Tested on: HIV-1 K103N
# PROCEDURE_DETAILS: Anti-HIV-1 activity against mutant strain K103N in MT-4 cells
# Format: cell-based
# CONDITION: Human immunodeficiency virus 1, MT4, read-out: EC50 K103N
Notebook: values listed as pEC50 are -log10 of the concentration (mol/L).

Worked cases, answers included:
Cc1cc(-c2ccc(C#N)cc2)cc(C)c1Nc1nc(NCC2CCOC2)nc(Nc2ccc(C#N)cc2)n1 (stereo not drawn) : 8.47
Cc1cc(-c2ccc(C#N)cc2)cc(C)c1Nc1nc(Nc2ccc(C#N)cc2)nc(N2CCN(C)CC2)n1 : 8.13
Cc1cc(-c2ccc(C#N)cc2)cc(C)c1Nc1nc(Nc2ccc(C#N)cc2)nc(N2CCC(O)C2)n1 (stereo not drawn) : 8.64
Cc1cc(-c2ccc(C#N)cc2)cc(C)c1Oc1nc(Nc2ccc(C#N)cc2)nc(N2CCC(O)C2)n1 (stereo not drawn) : 8.44
Cc1ccnc2c1NC(=O)c1cccnc1N2C1CC1 [NVP, nevirapine, reference compound] : 5.50

Query: What does the record list as pEC50 for "Cc1cc(-c2ccc(C#N)cc2)cc(C)c1Oc1nc(NCCN2CCOCC2)nc(Nc2ccc(C#N)cc2)n1" ?
Result: 8.52

====

# PROCEDURE_DETAILS: Cytotoxicity in uninfected MT-4 cells
# Assay type: cell-based
# CONDITION: human, uninfected MT-4 cells
Criterion: CC50 at 4 days strictly less than 5 µM. Met: true. Not met: false.

Worked set:
Cc1cc(-c2ccc(C#N)cc2)cc(C)c1Nc1nc(Nc2ccc(C#N)cc2)nc(N2CCC(O)C2)n1 (stereo not shown) : true
Cc1cc(-c2ccc(C#N)cc2)cc(C)c1Nc1nc(Nc2ccc(C#N)cc2)nc(N2CCN(C)CC2)n1 : true
Cc1cc(-c2ccc(C#N)cc2)cc(C)c1Oc1nc(Nc2ccc(C#N)cc2)nc(N2CCCC2CO)n1 (stereo not shown) : false
Cc1cc(-c2ccc(C#N)cc2)cc(C)c1Oc1nc(Nc2ccc(C#N)cc2)nc(N2CCC(O)CC2)n1 : false
Cc1cc(-c2ccc(C#N)cc2)cc(C)c1Oc1nc(Nc2ccc(C#N)cc2)nc(N2CCNCC2)n1 : false

Query: Consider "Cc1cc(-c2ccc(C#N)cc2)cc(C)c1Nc1nc(NCCN2CCN(C)CC2)nc(Nc2ccc(C#N)cc2)n1" . Does its CC50 at 4 days lie strictly below 5 µM?
Result: true

Query: Same question, Cc1cc(-c2ccc(C#N)cc2)cc(C)c1Oc1nc(Nc2ccc(C#N)cc2)nc(N2CCC(O)C2)n1 (stereo not shown) this time
Result: false
